# PROTOCOL DESCRIPTION: Luminescence Cell-Based Dose Confirmation HTS to Identify Inhibitors of Platelet Dense Granule Release. [Related pubchem assays: 1663 (Primary HTS), 1678 (Summary of Project)]
# Type: functional
Activity calls are given as the source filed them. No stated cut-off is given here; in the data, actives have a measured EC50 and inactives only a lower limit.
READOUT KIND: EC50

Illustrative cases are given below, each with its answer.
* CCCc1cc(C(=O)NC2CCCC2)no1 | > 112 µM (not active)
* Cc1cccc(-n2cnc3c(sc4nc(N5CCOCC5)c5c(c43)CCCC5)c2=O)c1 | 50 µM (active)
* O=C(/C=C/Nc1ccc(Br)cc1F)c1ccccc1 | 4.16 µM (active)
* Cc1ccccc1C1CC(c2ccccc2OC(F)F)Nc2ncnn21 (stereo not given) | > 112 µM (not active)

Assign EC50 to the following record: CCCc1cc(-c2nc(N)ncc2-c2ccc3c(c2)OCCCO3)c(O)cc1OC
> 112 µM (not active)
